Source listed as the supplement of paper PMC10567573.

Overview of recorded protein stability index for various variants
B1: TIA1 (parent)
chain: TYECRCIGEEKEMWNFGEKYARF

variants of: B1; assay: protein stability index of a GFP-peptide fusion (GPS, HEK-293T) (PSI 1-6); higher = more stable; details: c terminus: native;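 note: lentivirally expressed fusions sorted by FACS into six bins by GFP to DsRed ratio, PSI derived from sequencing read proportions per bin multiplied by bin number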
// response body must contain only the number

{"mutationAnnotation": "K11V", "reportedMetric": "protein stability index", "recordedValue": 2.57}
{"mutationAnnotation": "E18S", "reportedMetric": "protein stability index", "recordedValue": 1.97}

Lab note: next variant to report on.
Looking up E9V , I see its protein stability index listed as 1.92
